These measurements were taken from paper PMC11229316.

Molecular target: HpParAD41A (Helicobacter pylori, UniProt O25759 1-264, D41A)
Assay: fluorescence polarization; 1 mM ATP, 5 mM Mg2+; FP: 20 mM Tris-HCl pH 8.0, 175 mM NaCl, 5 mM MgCl2, 10% glycerol, 1 mM ATP or CTP, 5 nM DNA, room temperature; EMSA: 20 mM Tris-HCl pH 8.0, 50 mM NaCl, 11 mM imidazole, 5 mM MgCl2, 10% glycerol, +/- 2 mM CTP, 37 C, gel at 4 C
Conditions: protein: recombinant; tags: His (Ni-NTA purified); label: 5' Cy5 in EMSA; FP label Cy3 or Cy5 not specified per DNA; blunt
EXPERIMENTAL_READOUT: Kd (nM)
One number for each entry, in nM.

**Q:** Given Cy5/Cy3-labeled nsDNA 24-bp (dsDNA) DNA 1: TCCTATGAATTGCTATGGCAAGCG DNA 2: CGCTTGCCATAGCAATTCATAGGA , state its recorded Kd.
**A:** 149
